Ref: patent US11912723B2

- Tested target: GST-tagged KRAS G12D (2-169) (Homo sapiens, UniProt P01116, G12D)
- Construct: GST-tagged KRAS^G12D (2-169, Reaction Biology, MSC-11-539); purchased Reaction Biology MSC-11-539 (KRAS G12D); MSC-11-502 (SOS1cat)
- Sequence (P01116 2-169 isoform P01116-2 G12D): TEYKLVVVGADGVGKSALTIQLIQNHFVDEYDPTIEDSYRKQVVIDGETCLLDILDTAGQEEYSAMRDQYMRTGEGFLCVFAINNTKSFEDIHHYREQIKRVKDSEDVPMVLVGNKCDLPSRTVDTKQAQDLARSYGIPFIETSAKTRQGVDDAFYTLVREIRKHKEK
- Assay details: Nucleotide exchange assay (NEA), HTRF of SOS-mediated GTP-DY-647P1 binding
- Type: biochemical
- Condition context: 5 nM GST-KRAS G12D, 20 nM SOScat, 150 nM GTP; compound 1 h at RT
pIC50: −log10 of the molar value.
Entries and their pIC50

Consider the following illustrative entries.
>>> print(df.to_string())
                                   compound  quantity_name  assay_result
0  CN(C)C(=O)c1nn2c(c1Cl)CN(c1nc(OC[C@@]34CCCN3C[C@H](F)C4)nc3c1CN(C)[C@@]1(CCc4c(F)ccc(F)c41)C3)CCC2          pIC50        > 8.00
1  F[C@H]1CN2CCC[C@@]2(COc2nc3c(c(N4CCC=CCC4)n2)COC2(CCc4c(Cl)cccc42)C3)C1 (stereo partly drawn)          pIC50        < 4.70
2  CN1Cc2c(nc(OCC3(CN4CCOCC4)CC3)nc2N2C[C@H]3CC[C@@H](C2)N3)C[C@]12CCCc1ccccc12          pIC50  7.00 to 8.00
3  CN1Cc2c(nc(OC[C@@]34CCCN3C[C@H](F)C4)nc2N2C[C@H]3CC[C@@H](C2)[C@@H]3N)C[C@]12CCCc1ccccc12          pIC50  4.70 to 6.00

Value sought: pIC50, system GST-tagged KRAS G12D (2-169) (Homo sapiens, UniProt P01116, G12D), item Oc1ccc(Cl)c2c1C1(CC2)Cc2nc(OC[C@@]34CCCN3C[C@H](F)C4)nc(N3CCCCCC3)c2CO1 (mixture of isomers) . Result: 4.70 to 6.00

Value sought: pIC50, system GST-tagged KRAS G12D (2-169) (Homo sapiens, UniProt P01116, G12D), item OC1CCCN(c2nc(OC[C@@]34CCCN3C[C@H](F)C4)nc3c2COC2(CCCc4ccc(Cl)cc42)C3)CC1 (stereo partly drawn) . Result: 4.70 to 6.00

----------
- System: AGS (KRAS G12D) cells, phospho-ERK
- Assay details: pERK In Cell Western (ICW) assay (Method B)
- Assay type: cell-based
- Condition context: Homo sapiens, 3 hours
Entries and their IC50

Molecule	Assay result
F[C@H]1CN2CCC[C@@]2(COc2nc3c(c(N4CCC=CCC4)n2)COC2(CCc4c(Cl)cccc42)C3)C1 (stereo partly drawn)	> 10 µM

Sure, the documented IC50 for OC1CCCN(c2nc(OC[C@@]34CCCN3C[C@H](F)C4)nc3c2COC2(CCc4c(Cl)cccc42)C3)CC1 (mixture of isomers) is > 10 µM

Sure, the documented IC50 for O=C1NC(=O)C2(CCCN(c3nc(OC[C@@]45CCCN4C[C@H](F)C5)nc4c3COC3(CCc5c(Cl)cccc53)C4)C2)N1 (single isomer, unassigned) [Compound 24A] is 1 to 10 µM

Sure, the documented IC50 for CN(C)C(=O)c1cc2n(n1)CCCN(c1nc(OC[C@@]34CCCN3C[C@H](F)C4)nc3c1COC1(CCc4ccc(OC(F)F)cc41)C3)C2 (mixture of isomers) is > 10 µM

Sure, the documented IC50 for N#CC1CCCN(c2nc(OC[C@@]34CCCN3C[C@H](F)C4)nc3c2COC2(CCc4c(Cl)cccc42)C3)CC1 (stereo partly drawn) is > 10 µM

Sure, the documented IC50 for CN1Cc2c(nc(OC[C@@]34CCCN3C[C@H](F)C4)nc2N2CCCn3nc(N)c(Cl)c3C2)C[C@]12CCCc1ccccc12 is 1 to 10 µM

Sure, the documented IC50 for Oc1ccc2c(c1)C1(CCC2)Cc2nc(OC[C@@]34CCCN3C[C@H](F)C4)nc(N3CCCCCC3)c2CO1 (single isomer, unassigned) is > 10 µM

Sure, the documented IC50 for CN(C)C(=O)c1nn2c(c1Cl)CN(c1nc(OC[C@@]34CCCN3C[C@H](F)C4)nc3c1CN(C)[C@@]1(CCc4cccc(F)c41)C3)CCC2 is 0.01 to 0.1 µM

Sure, the documented IC50 for CN1Cc2c(nc(OC[C@@]34CCCN3C[C@H](F)C4)nc2N2CCCCCC2)C[C@]12CCc1c(Cl)cccc12 [Compound 28A] is > 10 µM

Sure, the documented IC50 for CN(C)C(=O)c1nn2c(c1Cl)CN(c1nc(OC[C@@]34CCCN3C[C@H](F)C4)nc3c1CN(C)[C@@]1(CCc4cccc(Cl)c41)C3)CCC2 is 0.01 to 0.1 µM

Sure, the documented IC50 for CN1CCN(C(=O)c2nn3c(c2Cl)CN(c2nc(OC[C@@]45CCCN4C[C@H](F)C5)nc4c2CO[C@@]2(CCc5c(Cl)cccc52)C4)CCC3)CC1 is 0.1 to 1 µM

Sure, the documented IC50 for CN1Cc2c(nc(OC[C@@]34CCCN3C[C@H](F)C4)nc2N2CCC[C@]3(C2)NC(=O)NC3=O)C[C@]12CCc1cccc(Cl)c12 is 1 to 10 µM

Sure, the documented IC50 for CN(C)C(=O)c1cc2n(n1)CCCN(c1nc(OC[C@@]34CCCN3C[C@H](F)C4)nc3c1COC1(CCc4c(OC(F)F)cccc41)C3)C2 (mixture of isomers) is > 10 µM

Sure, the documented IC50 for CN(C)C(=O)c1cc2n(n1)CCCN(c1nc(OC[C@@]34CCCN3C[C@H](F)C4)nc3c1CN(C)C1(CCCc4ccc(O)cc41)C3)C2 (stereo partly drawn) is 1 to 10 µM

Sure, the documented IC50 for CN(C)C(=O)c1cc2n(n1)CCCN(c1nc(OC[C@@]34CCCN3C[C@H](F)C4)nc3c1CN(C)[C@]1(CCCc4ccc(O)cc41)C3)C2 [Compound 39B] is > 10 µM

Sure, the documented IC50 for F[C@H]1CN2CCC[C@@]2(COc2nc3c(c(N4CCCCCC4)n2)COC2(CCCc4c(Br)cccc42)C3)C1 (stereo partly drawn) is > 10 µM

Sure, the documented IC50 for F[C@H]1CN2CCC[C@@]2(COc2nc3c(c(N4C[C@H]5CC[C@@H](C4)N5)n2)COC2(CCc4c(Cl)cccc42)C3)C1 (stereo partly drawn) is 1 to 10 µM

Sure, the documented IC50 for Cc1c(C(=O)N(C)C)nn2c1CN(c1nc(OC[C@@]34CCCN3C[C@H](F)C4)nc3c1CO[C@@]1(CCc4c(Cl)cccc41)C3)CCC2 is 0.1 to 1 µM

Sure, the documented IC50 for CN(C)C(=O)c1nn2c(c1Cl)CN(c1nc(OC[C@@]34CCCN3C[C@H](F)C4)nc3c1CN(C)[C@@]1(CCc4ccccc41)C3)CCC2 is 0.01 to 0.1 µM

Sure, the documented IC50 for O=C(c1nn2c(c1Cl)CN(c1nc(OC[C@@]34CCCN3C[C@H](F)C4)nc3c1CO[C@@]1(CCc4c(Cl)cccc41)C3)CCC2)N1CCNCC1 is 0.1 to 1 µM
